- assay-comment: Pharmacokinetic assessment of X842 in dogs (IV, single oral, repeated oral)
- Assay type: in vivo
- condition-set: male, beagle, dog, plasma, po, 0.3 mg/kg, male dogs, single oral X842 0.3 mg/kg; analyte as labelled; read-out: AUC(0-24h)
// values below are reported AUC(0-t)
// units = ng·h/mL; emit number, no label

INSERT INTO results (compound, reported_value) VALUES
  ('Cc1cccc(C)c1CNc1cc(C(=O)NCCOC(=O)CCCC(=O)O)cn2c(C)c(C)nc12 [X842, linaprazan glurate]', 5.2);

Attention now shifts to the item below.
Enquiry: Please give measured AUC(0-t) of the following entry: Cc1cccc(C)c1CNc1cc(C(=O)NCCO)cn2c(C)c(C)nc12 [linaprazan]
Return: 77.8

---

- assay-comment: Pharmacokinetic assessment of X842 in rats (IV, single oral, repeated oral)
- Type: in vivo, Sprague-Dawley rats
- condition-set: male, Sprague-Dawley, rat, plasma, po, 9.6 mg/kg, male rats, single oral X842 9.6 mg/kg; analyte as labelled; read-out: AUC(0–24h)
quantity-measured: AUC(0-t)

Enquiry: Give the reported value of AUC(0-t) for this record: Cc1cccc(C)c1CNc1cc(C(=O)NCCO)cn2c(C)c(C)nc12 [linaprazan]
Return: 576 ng·h/mL

---

Attribute: AUC(0-t)
- assay-comment: Pharmacokinetic assessment of X842 in rats (IV, single oral, repeated oral)
- Format: in vivo, Sprague-Dawley rats
- condition-set: female, Sprague-Dawley, rat, plasma, po, 2.4 mg/kg, female rats, single oral X842 2.4 mg/kg; analyte as labelled; read-out: AUC(0–24h)
Unit ng·h/mL implied. Number only.

INSERT INTO results (compound, reported_value) VALUES
  ('Cc1cccc(C)c1CNc1cc(C(=O)NCCO)cn2c(C)c(C)nc12', 382);

Would you kindly look at the next entry?
Enquiry: Report AUC(0-t) for Cc1cccc(C)c1CNc1cc(C(=O)NCCOC(=O)CCCC(=O)O)cn2c(C)c(C)nc12 [X842, linaprazan glurate]
Return: 85.6

---

Cmax for assorted compounds
- assay-comment: Pharmacokinetic assessment of X842 in rats (IV, single oral, repeated oral)
- Type: in vivo, Sprague-Dawley rats
- condition-set: female, Sprague-Dawley, rat, plasma, iv, 0.6 mg/kg, female rats, intravenous X842; plasma analyte as labelled
Returns: string containing the number followed by the unit.

INSERT INTO measurements (compound, quantity_measured, reported_value) VALUES
  ('Cc1cccc(C)c1CNc1cc(C(=O)NCCOC(=O)CCCC(=O)O)cn2c(C)c(C)nc12 [X842, linaprazan glurate]', 'Cmax', '606 ng/mL');

Enquiry: Quote Cmax reported for "Cc1cccc(C)c1CNc1cc(C(=O)NCCO)cn2c(C)c(C)nc12" please.
Return: 80.5 ng/mL

---

# half-life listing for each entry below
- assay-comment: Pharmacokinetic assessment of X842 in dogs (IV, single oral, repeated oral)
- Format: in vivo
- condition-set: beagle, dog, plasma; female dogs, intravenous X842 0.3 mg/kg; analyte as labelled; read-out: t1/2 (converted)
Output spec: scalar in h, unitless text.

INSERT INTO measurements (molecule, uom, reported_value) VALUES
  ('Cc1cccc(C)c1CNc1cc(C(=O)NCCO)cn2c(C)c(C)nc12', 'h', 1.6);

Enquiry: Give the reported value of half-life for this record: Cc1cccc(C)c1CNc1cc(C(=O)NCCOC(=O)CCCC(=O)O)cn2c(C)c(C)nc12 [X842, linaprazan glurate]
Return: 0.7

---

- assay-comment: Pharmacokinetic assessment of X842 in rats (IV, single oral, repeated oral)
- Type: in vivo, Sprague-Dawley rats
- condition-set: female, Sprague-Dawley, rat, plasma, po, 2.4 mg/kg, female rats, single oral X842, 2.4 mg/kg (third dose group)
- Protocol: Male and female Sprague-Dawley rats weighing approximately 150 g were housed individually with a 12-h light/dark cycle. Food and water were provided ad libitum, except during overnight fasting (10–16 h) prior to oral drug administration, as described previously ([Kotegawa et al., 1998]; [Kotegawa et al., 2002]). […]
quantity-measured: Cmax (ng/mL)
Write down the numeric answer in ng/mL and omit the unit.

Enquiry: For the compound Cc1cccc(C)c1CNc1cc(C(=O)NCCOC(=O)CCCC(=O)O)cn2c(C)c(C)nc12 [X842, linaprazan glurate] , give its reported Cmax.
Return: 164

---

- assay-comment: Pharmacokinetic assessment of X842 in rats (IV, single oral, repeated oral)
- Assay type: in vivo, Sprague-Dawley rats
- condition-set: female, Sprague-Dawley, rat, plasma, po, 9.6 mg/kg, female rats, single oral X842 9.6 mg/kg; analyte as labelled; read-out: AUC(0–24h)
quantity-measured: AUC(0-t)
Just the number plus its unit, please.

Enquiry: Kindly indicate its recorded AUC(0-t). Item: "Cc1cccc(C)c1CNc1cc(C(=O)NCCO)cn2c(C)c(C)nc12"
Return: 3020 ng·h/mL

---

# Lookup of reported half-life keyed by entry
- assay-comment: Pharmacokinetic assessment of X842 in dogs (IV, single oral, repeated oral)
- Assay type: in vivo
- condition-set: beagle, dog, plasma; male dogs, single oral X842 1.2 mg/kg; analyte as labelled; read-out: t1/2 (converted)
The reply should contain only the number, in h.

INSERT INTO measurements (compound, quantity_measured, reported_value) VALUES
  ('Cc1cccc(C)c1CNc1cc(C(=O)NCCOC(=O)CCCC(=O)O)cn2c(C)c(C)nc12 [X842, linaprazan glurate]', 'half-life', 2);

Enquiry: Provide measured half-life value, entry: Cc1cccc(C)c1CNc1cc(C(=O)NCCO)cn2c(C)c(C)nc12 [linaprazan]
Return: 2.8

---

- assay-comment: Pharmacokinetic assessment of X842 in rats (IV, single oral, repeated oral)
- Type: in vivo, Sprague-Dawley rats
- condition-set: female, Sprague-Dawley, rat, plasma, po, 2.4 mg/kg, female rats, single oral X842 2.4 mg/kg; analyte as labelled
- Experimental: Male and female Sprague-Dawley rats weighing approximately 150 g were housed individually with a 12-h light/dark cycle. Food and water were provided ad libitum, except during overnight fasting (10–16 h) prior to oral drug administration, as described previously ([Kotegawa et al., 1998]; [Kotegawa et al., 2002]). […]
Listing: Cmax of selected compounds
Write the value in ng/mL as a bare number.

INSERT INTO assay_data (compound, quantity_measured, uom, reported_value) VALUES
  ('Cc1cccc(C)c1CNc1cc(C(=O)NCCO)cn2c(C)c(C)nc12 [linaprazan]', 'Cmax', 'ng/mL', 72.5);

Turning now to a further record.
Enquiry: Quickly give me recorded Cmax for Cc1cccc(C)c1CNc1cc(C(=O)NCCOC(=O)CCCC(=O)O)cn2c(C)c(C)nc12 [X842, linaprazan glurate]
Return: 42.6

---

- assay-comment: Pharmacokinetic assessment of X842 in rats (IV, single oral, repeated oral)
- Type: in vivo, Sprague-Dawley rats
- condition-set: male, Sprague-Dawley, rat, plasma, po, 2.4 mg/kg, male rats, single oral X842, 2.4 mg/kg (third dose group)
quantity-measured: Cmax (ng/mL)
Number in ng/mL, nothing else.

Enquiry: Query Cmax for Cc1cccc(C)c1CNc1cc(C(=O)NCCOC(=O)CCCC(=O)O)cn2c(C)c(C)nc12 [X842, linaprazan glurate]
Return: 49.7

---

- assay-comment: Pharmacokinetic assessment of X842 in rats (IV, single oral, repeated oral)
- Type: in vivo, Sprague-Dawley rats
- condition-set: male, Sprague-Dawley, rat, plasma, iv, 0.6 mg/kg, male rats, intravenous X842; plasma analyte as labelled (prodrug X842 / parent linaprazan); read-out: t1/2 (converted)
quantity-measured: half-life (min)
Provide only the numeric value, understood in min.

INSERT INTO assay_data (molecule, reported_value) VALUES
  ('Cc1cccc(C)c1CNc1cc(C(=O)NCCO)cn2c(C)c(C)nc12', 84);

Enquiry: Specify measured half-life for Cc1cccc(C)c1CNc1cc(C(=O)NCCOC(=O)CCCC(=O)O)cn2c(C)c(C)nc12 [X842, linaprazan glurate] .
Return: 24

---

- assay-comment: Pharmacokinetic assessment of X842 in dogs (IV, single oral, repeated oral)
- Assay type: in vivo
- condition-set: beagle, dog, plasma, 1.2 mg/kg; female dogs, repeat oral X842, Day 1; analyte as labelled
quantity-measured: Cmax at 1 day (ng/mL)
Provide the reading as a plain figure in ng/mL.

INSERT INTO assay_data (compound, quantity_measured, uom, reported_value) VALUES
  ('Cc1cccc(C)c1CNc1cc(C(=O)NCCO)cn2c(C)c(C)nc12 [linaprazan]', 'Cmax at 1 day', 'ng/mL', 67.2);

Enquiry: Read off the recorded Cmax at 1 day for Cc1cccc(C)c1CNc1cc(C(=O)NCCOC(=O)CCCC(=O)O)cn2c(C)c(C)nc12 [X842, linaprazan glurate]
Return: 138

---

- assay-comment: Pharmacokinetic assessment of X842 in dogs (IV, single oral, repeated oral)
- Assay type: in vivo
- condition-set: both sexes, beagle, dog, plasma, 0.3 mg/kg; dogs, IV administration, similar between the sexes; read-out: t1/2 (converted)
quantity-measured: half-life

Enquiry: Using the record for Cc1cccc(C)c1CNc1cc(C(=O)NCCOC(=O)CCCC(=O)O)cn2c(C)c(C)nc12 [X842, linaprazan glurate] , state its measured half-life.
Return: ~36 min

Numbers sourced from paper PMC12446003.
